# System: Athelia rolfsii
# test method notes: Growth inhibition of Athelia rolfsii at 100 ppm by agar dilution method
# Format: functional
# run conditions: Agroathelia rolfsii; read-out: GI
Okay, here is how we bin by inhibition of growth at 100 ppm: low range = under 20%, mid range = from 20% up to 60%, high range = 60% and over

Solved entries (count: 5):
# molecule, discrete label
records = [
    ("Cc1ccc(OP2(=S)OCc3ccccc3O2)c(C(C)C)c1 (configuration not stated)", "mid range"),
    ("O=P1(Oc2ccccc2)OCc2ccccc2O1 (configuration not stated)", "low range"),
    ("CCc1ccc2c(c1)COP(=S)(Oc1cc(C)ccc1C(C)C)O2 (configuration not stated)", "mid range"),
    ("CCc1ccc2c(c1)COP(=S)(OC)O2 (configuration not stated)", "high range"),
    ("CCc1ccc2c(c1)COP(=O)(Oc1ccccc1)O2 (configuration not stated)", "high range"),
]

INPUT: Class for CCCCCCCCCCCOP1(=S)OCc2ccccc2O1 (configuration not stated) ?
OUTPUT: mid range

INPUT: Classify this molecule: Cc1ccc(C(C)C)c(OP2(=S)OCc3cc(C(C)C)ccc3O2)c1 (configuration not stated)
OUTPUT: high range

INPUT: Lab log: COP1(=S)OCc2cc(C(C)C)ccc2O1 (configuration not stated) — assign inhibition of growth at 100 ppm category
OUTPUT: high range

INPUT: Could you place CCc1ccc2c(c1)COP(=S)(OCCc1ccccc1)O2 (configuration not stated) in its proper category? Many thanks.
OUTPUT: mid range

INPUT: Which bin, given its inhibition of growth at 100 ppm, does CCCCCCCOP1(=S)OCc2ccccc2O1 (configuration not stated) occupy?
OUTPUT: mid range

INPUT: Class (by measured inhibition of growth at 100 ppm) for C=CCc1ccc(OP2(=S)OCc3cc(C(C)C)ccc3O2)c(OC)c1 (configuration not stated)
OUTPUT: low range

INPUT: Quick check: band for CCCCCCCCCCCCCCCOP1(=S)OCc2ccccc2O1 (configuration not stated)
OUTPUT: low range

###

# Tested on: Athelia rolfsii
# test method notes: Growth inhibition of Athelia rolfsii at 100 ppm by agar dilution method
# Assay type: functional
# run conditions: Agroathelia rolfsii; read-out: GI
Recorded inhibition of growth at 100 ppm by entry
State just the number; it will be interpreted in %.

Below are worked cases with known answers.
# molecule, unit info, reported
rows = [
    ("CCc1ccc2c(c1)COP(=S)(Oc1ccc(C)cc1C(C)C)O2 (stereo not given)", "%", 88.6),
    ("CC(C)c1ccc2c(c1)COP(=S)(OCCc1ccccc1)O2 (stereo not given)", "%", 30.6),
    ("S=P1(OCCc2ccccc2)OCc2ccccc2O1 (stereo not given)", "%", 81.6),
    ("Cc1ccc(C(C)C)c(OP2(=S)OCc3ccccc3O2)c1Cl (stereo not given)", "%", 12.3),
]

INPUT: For C=CCc1ccc(OP2(=S)OCc3ccccc3O2)c(OC)c1 (stereo not given) , what is its reported inhibition of growth at 100 ppm?
OUTPUT: 25.5

INPUT: What does the record list as inhibition of growth at 100 ppm for Cc1ccc(OP2(=S)OCc3cc(C(C)C)ccc3O2)c(C(C)C)c1 (stereo not given) ?
OUTPUT: 62.5

INPUT: Which inhibition of growth at 100 ppm reading was recorded for the molecule CC(C)=CCCC(C)CCOP1(=S)OCc2ccccc2O1 (stereo not given) ?
OUTPUT: 36.6

INPUT: Which inhibition of growth at 100 ppm is reported for this molecule? Cc1ccc(C(C)C)c(OP2(=S)OCc3ccccc3O2)c1 (stereo not given)
OUTPUT: 27.7

INPUT: Quick check: inhibition of growth at 100 ppm of COP1(=S)OCc2ccccc2O1 (stereo not given) [SALITHION] ?
OUTPUT: 60.7

INPUT: Looking for the measured inhibition of growth at 100 ppm of CCCCCCCCCCCCCOP1(=S)OCc2ccccc2O1 (stereo not given) , can you help?
OUTPUT: 3.1
